# test protocol: in vivo
# Design: species or system nude mice
# details: nude, mouse, total radioactivity, Accumulation in HT29 tumor
Where a SMILES comes first, the peptide text is derived from it. Side-chain parts run from the residue outwards. [ ]: non-standard residue; d: D form. The star is where a group is joined. DOTA = O=C(O)CN1CCN(CC(=O)O)CCN(CC(=O)*)CCN(CC(=O)O)CC1; PEG6 = NCCOCCOCCOCCOCCOCCOCCC(=O)O; Tle = CC(C)(C)[C@H](N)C(=O)O; Nlys = NCCCCNCC(=O)O
measure name: tissue uptake at 4 h (%ID/g)
Value expressed in %ID/g; do not type the unit.

In: Look up and report measured tissue uptake at 4 h for this entry: CC(C)C[C@H](NC(=O)[C@@H](NC(=O)[C@H](Cc1ccc(O)cc1)NC(=O)[C@@H]1CCCN1C(=O)[C@H](CCCCN)NC(=O)CN(CCCCN)C(=O)[C@@H](N)CCCCNC(=O)CCOCCOCCOCCOCCOCCOCCNC(=O)CN1CCN(CC(=O)O)CCN(CC(=O)O)CCN(CC(=O)O)CC1)C(C)(C)C)C(=O)O [[^177Lu]NT127, metal not drawn] (H-K([PEG6-DOTA])[Nlys]KPY[Tle]L-OH)
Out: 1.1

====

# test protocol: in vivo
# Set-up: species or system nude mice
# details: nude, mouse, iv, total radioactivity
Where a SMILES comes first, the peptide text is derived from it. Side-chain parts run from the residue outwards. [ ]: non-standard residue; d: D form. The star is where a group is joined. DOTA = O=C(O)CN1CCN(CC(=O)O)CCN(CC(=O)*)CCN(CC(=O)O)CC1; PEG6 = NCCOCCOCCOCCOCCOCCOCCC(=O)O; Tle = CC(C)(C)[C@H](N)C(=O)O; Nlys = NCCCCNCC(=O)O
measure name: tissue uptake at 1 h
# answer = value followed by unit

In: Look up and report measured tissue uptake at 1 h for this entry: CC(C)C[C@H](NC(=O)[C@@H](NC(=O)[C@H](Cc1ccc(O)cc1)NC(=O)[C@@H]1CCCN1C(=O)[C@H](CCCCN)NC(=O)CN(CCCCN)C(=O)[C@@H](N)CCCCNC(=O)CCOCCOCCOCCOCCOCCOCCNC(=O)CN1CCN(CC(=O)O)CCN(CC(=O)O)CCN(CC(=O)O)CC1)C(C)(C)C)C(=O)O [[^177Lu]NT127, metal not drawn] (H-K([PEG6-DOTA])[Nlys]KPY[Tle]L-OH)
Out: 0.05 %ID/g

====

# test protocol: in vivo
# Design: species or system nude mice
# details: nude, mouse, iv, total radioactivity
Where a SMILES comes first, the peptide text is derived from it. Side-chain parts run from the residue outwards. [ ]: non-standard residue; d: D form. The star is where a group is joined. DOTA = O=C(O)CN1CCN(CC(=O)O)CCN(CC(=O)*)CCN(CC(=O)O)CC1; PEG6 = NCCOCCOCCOCCOCCOCCOCCC(=O)O; Tle = CC(C)(C)[C@H](N)C(=O)O; Nlys = NCCCCNCC(=O)O
measure name: tissue to tissue ratio at 24 h
Could you respond with only the numeric value?

In: Look up and report measured tissue to tissue ratio at 24 h for this entry: CC(C)C[C@H](NC(=O)[C@@H](NC(=O)[C@H](Cc1ccc(O)cc1)NC(=O)[C@@H]1CCCN1C(=O)[C@H](CCCCN)NC(=O)CN(CCCCN)C(=O)[C@@H](N)CCCCNC(=O)CCOCCOCCOCCOCCOCCOCCNC(=O)CN1CCN(CC(=O)O)CCN(CC(=O)O)CCN(CC(=O)O)CC1)C(C)(C)C)C(=O)O [[^177Lu]NT127, metal not drawn] (H-K([PEG6-DOTA])[Nlys]KPY[Tle]L-OH)
Out: 60

====

# test protocol: in vivo
# Design: species or system nude mice
# details: nude, mouse, iv, total radioactivity, Accumulation in kidney
Where a SMILES comes first, the peptide text is derived from it. Side-chain parts run from the residue outwards. [ ]: non-standard residue; d: D form. The star is where a group is joined. DOTA = O=C(O)CN1CCN(CC(=O)O)CCN(CC(=O)*)CCN(CC(=O)O)CC1; PEG6 = NCCOCCOCCOCCOCCOCCOCCC(=O)O; Tle = CC(C)(C)[C@H](N)C(=O)O; Nlys = NCCCCNCC(=O)O
measure name: tissue uptake at 1 h (%ID/g)
Value expressed in %ID/g; do not type the unit.

In: Look up and report measured tissue uptake at 1 h for this entry: CC(C)C[C@H](NC(=O)[C@@H](NC(=O)[C@H](Cc1ccc(O)cc1)NC(=O)[C@@H]1CCCN1C(=O)[C@H](CCCCN)NC(=O)CN(CCCCN)C(=O)[C@@H](N)CCCCNC(=O)CCOCCOCCOCCOCCOCCOCCNC(=O)CN1CCN(CC(=O)O)CCN(CC(=O)O)CCN(CC(=O)O)CC1)C(C)(C)C)C(=O)O [[^177Lu]NT127, metal not drawn] (H-K([PEG6-DOTA])[Nlys]KPY[Tle]L-OH)
Out: 38

====

# test protocol: in vivo
# Set-up: species or system nude mice
# details: nude, mouse, iv, total radioactivity
Where a SMILES comes first, the peptide text is derived from it. Side-chain parts run from the residue outwards. [ ]: non-standard residue; d: D form. The star is where a group is joined. DOTA = O=C(O)CN1CCN(CC(=O)O)CCN(CC(=O)*)CCN(CC(=O)O)CC1; PEG6 = NCCOCCOCCOCCOCCOCCOCCC(=O)O; Tle = CC(C)(C)[C@H](N)C(=O)O; Nlys = NCCCCNCC(=O)O
measure name: tissue uptake at 24 h (%ID/g)
Value expressed in %ID/g; do not type the unit.

In: Look up and report measured tissue uptake at 24 h for this entry: CC(C)C[C@H](NC(=O)[C@@H](NC(=O)[C@H](Cc1ccc(O)cc1)NC(=O)[C@@H]1CCCN1C(=O)[C@H](CCCCN)NC(=O)CN(CCCCN)C(=O)[C@@H](N)CCCCNC(=O)CCOCCOCCOCCOCCOCCOCCNC(=O)CN1CCN(CC(=O)O)CCN(CC(=O)O)CCN(CC(=O)O)CC1)C(C)(C)C)C(=O)O [[^177Lu]NT127, metal not drawn] (H-K([PEG6-DOTA])[Nlys]KPY[Tle]L-OH)
Out: 0.01
